Ref: PubChem BioAssay (NCI)

System: SR leukemia
Assay: NCI-60 one-dose screen, 48 h
Conditions: 10 µM unless noted
The panel holds about 83,000 compounds, 20% with a hit somewhere; the sample as a whole holds those more often. Calls of active or inactive are those of the source. How the source made its calls: active means growth percent below 10; inactive means the rest.
Give your call using only these classes: YES for active, NO for inactive

Worked examples, 2 compounds total:
compound: COc1ccc(-c2cc(-c3ccc(Cl)cc3)nc(SCCCCCCC(=O)NO)n2)cc1
class-label: YES
//
compound: CCOC(=O)CC(c1ccccc1)C(C#N)c1ccccc1 (stereo not drawn)
class-label: NO

Now consider a different compound.
Q: Answer briefly: the call reported for `CN(C)CCCNc1nc(-c2cccc(C(Cl)(Cl)Cl)c2)nc(C(Cl)(Cl)Cl)n1` in this assay.
A: NO

---

System: NCI-H522 lung
Test: NCI-60 one-dose screen, 48 h
Conditions: 10 µM unless noted
About 83,000 compounds went through this panel and 20% of them were active in at least one assay; those are over-represented in the sample as a whole. Calls of active or inactive are those of the source. How the source made its calls: active means growth percent below 10; inactive means the rest.
Give your call using only these classes: active, inactive

Worked examples, 5 compounds total:
compound: O=C(Nc1cccc2cccnc12)c1cc(C(=O)c2ccc(Cl)cc2)n2ccc(-c3ccncc3)cc12
experimental-system: NCI-H522 lung
class-label: inactive
--
compound: CC1(C)CC[C@]2(C(N)=O)CC[C@]3(C)C(=CC[C@@H]4[C@@]5(C)C/C(=C/c6ccncc6)C(=O)C(C)(C)[C@@H]5CC[C@]43C)[C@@H]2C1
experimental-system: NCI-H522 lung
class-label: active
--
compound: Nc1cc(NN=C(c2ccc(O)cc2)c2ccc(O)cc2)c([N+](=O)[O-])cc1[N+](=O)[O-]
experimental-system: NCI-H522 lung
class-label: active
--
compound: O=C(NCCCNC(=O)OCc1ccc2cccc(O)c2n1)OCc1ccc2cccc(O)c2n1
experimental-system: NCI-H522 lung
class-label: inactive
--
compound: Nc1ccc(NC(=O)c2ccccc2)c2c1C(=O)c1ccccc1C2=O
experimental-system: NCI-H522 lung
class-label: inactive

Now consider a different compound.
Q: Answer briefly: the call reported for `C=C(C)[C@@H]1CC[C@]2(C(=O)NCCNCCNC(=O)OC(C)(C)C)CC[C@]3(C)[C@H](CC[C@@H]4[C@@]5(C)CCC(=O)C(C)(C)[C@@H]5CC[C@]43C)[C@@H]12` in this assay.
A: inactive

---

Test system: CAKI-1 renal
Test: NCI-60 one-dose screen, 48 h
Settings: 10 µM unless noted
Compounds without any hit were thinned out: in the full panel of roughly 83,000, 20% have a hit. The source made the active and inactive calls. How the source made its calls: active means growth percent below 10; inactive means the rest.
Give your call using only these classes: active, inactive

compound: COc1cc(OC)c(/C=C/C(=O)c2c(N)cc(OC)cc2OC)c(OC)c1
class-label: inactive

compound: O=S(=O)(NCCNc1nccc(-c2c(-c3cccc(F)c3)nc3occn23)n1)c1ccc(C(F)(F)F)cc1
class-label: inactive

compound: C=C(C)[C@@H]1CC[C@]2(COC(=O)c3ccccc3C(=O)O)CC[C@]3(C)[C@H](CC[C@@H]4[C@@]5(C)CC[C@H](OC(=O)c6ccccc6C(=O)O)C(C)(C)[C@@H]5CC[C@]43C)[C@@H]12
class-label: inactive

compound: CCOc1ccc(/C=C(\C#N)c2cc3ccccc3[nH]2)cc1
class-label: inactive

compound: CCc1ccc(NC(=O)N[C@@H](Cc2cc(F)cc(F)c2)C(=O)N[C@@H]2C(=O)N3C[C@H](O)C[C@H]3C(=O)N3CCOC[C@H]3C(=O)N[C@@H](C)C(=O)N3C[C@H](C)C[C@H]3C(=O)O[C@H]2C)cc1
class-label: inactive

compound: c1ccc2c(c1)CN(CCCN1CCOCC1)C2
class-label: inactive

Q: Answer briefly: the call reported for `O=C(NCCCNC(=O)OCc1ccc2c(Br)cc(Br)c(O)c2n1)OCc1ccc2c(Br)cc(Br)c(O)c2n1` in this assay.
A: active

Q: Answer briefly: the call reported for `CC(C)=CC/C=C(/C)[C@H]1CC[C@]2(C)[C@@H]1CC[C@@H]1[C@@]3(C)CCCNC(C)(C)[C@@H]3CC[C@]12C` in this assay.
A: active

Q: Answer briefly: the call reported for `CC1(C)[C@@H](NOCCCN)CC[C@]2(C)[C@H]3C(=O)C=C4[C@@H]5C[C@](C)(C(=O)O)CC[C@]5(C)CC[C@@]4(C)[C@]3(C)CC[C@@H]12` in this assay.
A: active

---

Tested on: BT-549 breast
Test: NCI-60 one-dose screen, 48 h
Settings: 10 µM unless noted
About 83,000 compounds went through this panel and 20% of them were active in at least one assay; those are over-represented in the sample as a whole. Activity calls are given as the source filed them. How the source made its calls: active means growth percent below 10; inactive means the rest.
Give your call using only these classes: t for active, f for inactive

Worked examples, 2 compounds total:
compound: COc1ccc(C2CC(c3cc(OC)c(OC)c(OC)c3)=NN2C(C)=O)cc1OCC(=O)Nc1nc2ccc(C(F)(F)F)cc2s1 (stereo not given)
class-label: f
//
compound: CC1Cc2ccc(OCCN(C)C)cc2C1=O (stereo not given)
class-label: f

Now consider a different compound.
Q: Answer briefly: the call reported for `O=C(N/N=C/c1ccc([N+](=O)[O-])cc1)c1ccc(Br)o1` in this assay.
A: f

---

System: A498 renal
Assay: NCI-60 one-dose screen, 48 h
Conditions: 10 µM unless noted
This is part of a sample that, as a whole, favours compounds with a hit. Of some 83,000 tested, about 20% had one in any assay. The source made the active and inactive calls. How the source made its calls: active means growth percent below 10; inactive means the rest.
Give your call using only these classes: active, inactive

Worked examples, 5 compounds total:
smiles-entry: O=C(OCc1ccc2c(Cl)cc(Cl)c(O)c2n1)N1CCNCC1
class-label: inactive
//
smiles-entry: CC1(C)CC(=O)c2c(ccc(C(=O)C[C@@H](N)CO)c2N)O1
class-label: active
//
smiles-entry: C=C(C)[C@@H]1CC[C@]2(C(=O)O)CC[C@]3(C)[C@H](CC[C@@H]4[C@@]5(C)C/C(=C/c6ccco6)C(=O)C(C)(C)[C@@H]5CC[C@]43C)[C@@H]12
class-label: active
//
smiles-entry: O=C1NC(=O)c2cc([N+](=O)[O-])cc3cccc1c23
class-label: inactive
//
smiles-entry: N/C(=N\c1nc2ccccc2[nH]1)NC(=O)Cc1cccc2ccccc12
class-label: inactive

Q: Answer briefly: the call reported for `Cc1ccc(-n2nc3n(/c2=N\C(=O)NS(=O)(=O)c2ccc(C)cc2)CCN3C2=NCCN2)cc1` in this assay.
A: inactive

---

Tested on: A498 renal
Experiment: NCI-60 one-dose screen, 48 h (100 = growth as untreated, 0 = no growth, -100 = all killed)
Settings: 10 µM unless noted
About 83,000 compounds went through this panel and 20% of them were active in at least one assay; those are over-represented in the sample as a whole. Calls of active or inactive are those of the source. How the source made its calls: active means growth percent below 10; inactive means the rest.
observed-property: growth

Worked set:
molecule: c1cc2ccc3cc2cc1CNCCN1CCNCc2ccc4ccc(cc4c2)CNCCN(CCNC3)CCNCc2ccc3ccc(cc3c2)CNCC1
growth: 100% (inactive)

molecule: COc1cc(/C=C/C(=O)/C=C/c2ccc(-n3ccnc3)cc2)ccc1O
growth: 96.8% (inactive)

molecule: CCN(CCNc1ccc(C)c2sc3cc(Cl)ccc3c(=O)c12)CC(C)O (stereo not given)
growth: 51.4% (inactive)

molecule: O=C(Nc1cc(-c2cccnc2)nc(NCCCN2CCOCC2)n1)c1cc(Br)cc(C(F)(F)F)c1
growth: 53.7% (inactive)

molecule: CCCOc1ccc(-c2nc(-c3ccc(N)cc3)cs2)cc1
growth: 215% (inactive)

molecule: NC(=S)Cc1ccccc1
growth: 73.6% (inactive)

molecule: O=C(O)c1ccccc1C(F)(F)F
growth: 74.5% (inactive)

molecule: Cc1ccc2c(n1)C(=O)C(Cl)=C(Nc1ccc(N3CCN(C)CC3)cc1)C2=O
growth: 101% (inactive)

Attention now shifts to the item below.
Q: Could you tell me which growth is on file for `COc1cc2c(cc1OCCCN1CCN(CCCOc3cc4c(cc3OC)C(=O)N3C[C@H](F)C[C@H]3C=N4)CC1)N=C[C@@H]1C[C@@H](F)CN1C2=O` ?
A: -55% (active)

---

Test system: MDA-MB-435 melanoma
Assay: NCI-60 one-dose screen, 48 h
Conditions: 10 µM unless noted
This is part of a sample that, as a whole, favours compounds with a hit. Of some 83,000 tested, about 20% had one in any assay. Calls of active or inactive are those of the source. How the source made its calls: active means growth percent below 10; inactive means the rest.
Give your call using only these classes: True for active, False for inactive

Worked examples, 4 compounds total:
compound: C=C(C)[C@@H]1CC[C@]2(C(N)=O)CC[C@]3(C)[C@H](CC[C@@H]4[C@@]5(C)C/C(=C/c6cccnc6)C(=O)C(C)(C)[C@@H]5CC[C@]43C)[C@@H]12
class-label: True
--
compound: Cc1ccccc1OC(=O)c1cccc(Cl)c1
class-label: False
--
compound: COc1ccc2nc3c(cc2c1)C(=O)CC(C(F)(F)F)C3 (stereo not given)
class-label: True
--
compound: N#C/C(=C(/O)CCCO)c1nc2ccccc2c(=O)[nH]1
class-label: False

Now consider a different compound.
Q: Answer briefly: the call reported for `COc1ccc(NCc2cn(-c3ccc(C(=O)O)cc3)nc2-c2ccc(C(=O)O)cc2)cc1C(F)(F)F` in this assay.
A: False
